B1: HDV Ribozyme (parent)
chain: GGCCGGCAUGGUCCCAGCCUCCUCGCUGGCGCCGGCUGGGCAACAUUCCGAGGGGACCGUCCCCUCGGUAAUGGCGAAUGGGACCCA

# Variants of: B1
# Assay: self-cleavage, relative activity (ratio to wild type); higher = more cleavage; co-transcriptional
Just so you know, the groups by self-cleavage go like this: range 1: < 0.2; range 2: ≥ 0.2 and < 0.3; range 3: ≥ 0.3

{"Sequence variant": "G38C C64A", "Label value": "range 2"}
{"Sequence variant": "C13G G59C", "Label value": "range 1"}
{"Sequence variant": "G29A A77U", "Label value": "range 1"}
{"Sequence variant": "G11C G39U", "Label value": "range 1"}
{"Sequence variant": "C32U G67A", "Label value": "range 3"}
{"Sequence variant": "G2A C66U", "Label value": "range 1"}
{"Sequence variant": "C57U U69C", "Label value": "range 3"}
{"Sequence variant": "G17U A83G", "Label value": "range 3"}
{"Sequence variant": "A78U C85A", "Label value": "range 1"}
{"Sequence variant": "G38C G59C", "Label value": "range 2"}
{"Sequence variant": "C14A A78G", "Label value": "range 1"}

FYI, the data here is from the RNAGym collection of RNA variant scans (doi:10.7554/elife.80360).
